- ASSAYED TARGET: T1, recombinant biotinylated CD71 extracellular domain (Sino Biologics) with an N-terminal 6His tag (human, UniProt P02786 89-760, biotinylated (sites not given))
- T1 construct: extracellular domain; also called hCD71; huCD71
- T1 sequence (P02786 other isoform, or with tags, fused parts or gaps): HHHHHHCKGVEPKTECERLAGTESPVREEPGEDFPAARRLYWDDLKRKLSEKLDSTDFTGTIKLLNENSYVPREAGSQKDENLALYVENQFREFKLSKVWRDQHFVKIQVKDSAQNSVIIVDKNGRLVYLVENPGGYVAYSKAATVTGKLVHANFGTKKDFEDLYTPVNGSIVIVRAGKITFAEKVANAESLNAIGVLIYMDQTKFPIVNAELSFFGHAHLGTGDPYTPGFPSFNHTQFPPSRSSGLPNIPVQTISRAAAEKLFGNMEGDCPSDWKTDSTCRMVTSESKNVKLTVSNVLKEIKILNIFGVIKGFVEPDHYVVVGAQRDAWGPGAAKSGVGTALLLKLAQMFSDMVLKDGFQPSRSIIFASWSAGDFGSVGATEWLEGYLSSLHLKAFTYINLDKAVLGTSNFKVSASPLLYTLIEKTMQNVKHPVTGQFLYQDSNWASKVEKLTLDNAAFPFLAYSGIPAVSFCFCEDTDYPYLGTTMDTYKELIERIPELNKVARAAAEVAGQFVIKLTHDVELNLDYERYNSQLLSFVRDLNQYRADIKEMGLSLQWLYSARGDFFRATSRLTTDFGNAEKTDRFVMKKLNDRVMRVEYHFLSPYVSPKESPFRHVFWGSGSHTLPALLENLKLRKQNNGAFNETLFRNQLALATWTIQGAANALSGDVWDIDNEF
- METHOD DESCRIPTION: screening ELISA, ratio
Readings of hCD71:HSA for the listed binders
MEASURED ATTRIBUTE: hCD71:HSA

[
  {
    "BINDER": "SEQ ID NO 302 (designed binder, FN3 domain) MLPAPKNLVVSRVTEDSARLSWTAPDAAFDSFDIYYPEYYDRGEAIVLTVPGSERSYDLTGLKPGTEYTVYIDGVKGGGGSGPLSAIFTT",
    "RESULT": 126
  },
  {
    "BINDER": "SEQ ID NO 202 (designed binder, FN3 domain) MLPAPKNLVVSRVTEDSARLSWTAPDAAFDSFYIDYLELTYSGEAIVLTVPGSERSYDLTGLKPGTEYYVYIYGVKGGYPSSPLSAIFTT",
    "RESULT": 1610
  },
  {
    "BINDER": "SEQ ID NO 97 (designed binder, FN3 domain) MLPAPKNLVVSRVTEDSARLSWTAPDAAFDSFFISYFEGWASGEAIHLYVPGSERSYDLTGLKPGTEYSVHIQGVKGGQPSTPLSAIFTT",
    "RESULT": 1090
  },
  {
    "BINDER": "SEQ ID NO 219 (designed binder, FN3 domain) MLPAPKNLVVSRVTEDSARLSWTAPDAAFDSFHIDYLELTYAGEAIVLTVPGSERSYDLTGLKPGTEYYVTIYGVKGGYPSSPLSAIFTT",
    "RESULT": 1270
  },
  {
    "BINDER": "SEQ ID NO 301 (designed binder, FN3 domain) MLPAPKNLVVSRVTEDSARLSWTAPDAAFDSFEIEYDEPYRGGEAIVLTVPGSERSYDLTSLKPGTEYPVSIGGVKGGITSDPLSAIFTT",
    "RESULT": 55
  }
]
